Measured values drawn from PubChem BioAssay (NCI) for this set.

System: SNB-19 CNS
Test: NCI-60 one-dose screen, 48 h
Conditions: 10 µM unless noted
Experimental: Growth inhibition of the SNB-19 human tumor cell line is measured as a screen for anti-cancer activity. Cells are grown in 96 well plates and exposed to the test compound for 48 hours. Compounds are tested at a single concentration, which is 10^-5 M for most compounds. The reported endpoint is percent growth (GI% or GIPRCNT), where numbers from 0 - 100% represent growth inhibition, and numbers from -100% - 0 represent cell death. For example, a value of 40 represents 60% growth inhibition. […]
About 83,000 compounds went through this panel and 20% of them were active in at least one assay; those are over-represented in the sample as a whole. Calls of active or inactive are those of the source. The calls were made as follows: active = growth percent below 10; inactive = the rest.
Allowed answers: TRUE (active), FALSE (inactive)

Please review the following examples before continuing.
COMPOUND: Ic1ccc(Nc2nc3nonc3nc2Nc2ccc(I)cc2)cc1
TARGET_DESC: SNB-19 CNS
LABEL: FALSE

COMPOUND: CC1(/C=C/c2ccc(-c3ccccc3)cc2)CCn2cnc3ncnc(c32)N1O (stereo not drawn)
TARGET_DESC: SNB-19 CNS
LABEL: FALSE

Ask: Called result for `Nc1cc(-c2ccc(Cl)cc2)nn1-c1nnc(/C=C/c2ccco2)c(=O)[nH]1`
Reply: FALSE

Ask: Called result for `O=c1cc(C(F)(F)F)c2cc(-c3cc4ccccc4c(=O)o3)c(O)cc2o1`
Reply: FALSE

----------
test system: NCI-H460 lung; assay: NCI-60 one-dose screen, 48 h (100 = growth as untreated, 0 = no growth, -100 = all killed); settings: 10 µM unless noted
Compounds without any hit were thinned out: in the full panel of roughly 83,000, 20% have a hit.
EXPERIMENTAL_READOUT: growth (%)
One number for each entry, in %.

Some solved entries appear below for comparison.
COMPOUND: COc1cc(-c2cc(-c3ccc(Nc4nc(Nc5ccc(Cl)cc5)nc(Nc5ccc(Cl)cc5)n4)cc3)no2)cc(OC)c1OC
growth (%): 76.2
//
COMPOUND: COc1ccc(C=Nc2c(C(=O)Nc3cccc(Cl)c3C)sc3nc(C)c(C(=O)/C=C/c4ccc(OC)cc4)cc23)cc1
growth (%): 8.92
//
COMPOUND: O=C1/C(=C/c2ccc(Cl)cc2)CN(C(=O)C(Cl)Cl)C/C1=C\c1ccc(Cl)cc1
growth (%): -64.9
//
COMPOUND: CCCCCCCCn1ccc2cc(NC(=O)CN=[N+]=[N-])ccc21
growth (%): 107
//
COMPOUND: CC1(C)N=C(N)N=C(N)N1c1ccc(S(=O)(=O)Nc2nccs2)cc1
growth (%): 104
//
COMPOUND: O=C1CCCC1[n+]1ccccc1 (configuration not stated)
growth (%): 111
//
COMPOUND: O=C(Nc1ccccc1O)c1ccc(CNc2ccnc(C(F)(F)F)c2)cc1
growth (%): 38.8
//
COMPOUND: O=C(OCc1ccc2c(Cl)cc(Cl)c(O)c2n1)N1CCN(C(=O)c2cc3ccccc3[nH]2)CC1
growth (%): 12.8
//
COMPOUND: CCOC(=O)C1=C(CC(O)c2ccc(OC)cc2OC)NC(=O)NC1c1ccccc1 (configuration not stated)
growth (%): 113
//
COMPOUND: Cn1cc(-c2csc(-c3cn(C)c4ccccc34)n2)c2cnccc21
growth (%): -46.2

For every listed record, write down its growth.
1. COC12C=C/C(=C(/C(=O)OCc3csc(SC)n3)C(=O)CCCCCCCCC3(OC)C=C/C(=C(/C(=O)OCc4cnc(SC)s4)C(=O)CCCCCCCC1)O3)O2 (configuration not stated)
2. CN(C)c1ccc([C@@H](C(=O)Nc2cccc([N+](=O)[O-])c2)N(C(=O)c2cc3ccccc3[nH]2)c2cccc([N+](=O)[O-])c2)cc1
3. O=[N+]([O-])c1c(O)c(Cl)cc(Cl)c1Cl
4. CC(=O)N1N=C(c2ccc(Nc3nc(Nc4ccc(F)cc4)nc(Nc4ccc(F)cc4)n3)cc2)CC1c1ccc(N(C)C)cc1 (configuration not stated)
5. COC1C(O)CC(OC2CC(OC3CC(O[C@@H]4C(=O)c5c(cc6cc(OC7CC(OC8CC(O)C(O)C(C)O8)C(O)C(C)O7)c(C)c(O)c6c5O)CC4[C@H](OC)C(=O)O)OC(C)C3O)OC(C)C2O)OC1C (some centres not stated)
6. COc1ccc(C(O)c2cc3c(N)c(C(=O)Nc4cccc5ccccc45)sc3nc2C)cc1 (configuration not stated)
7. COC1C(O)CC(OC2CC(OC3CC(O[C@@H]4C(=O)c5c(cc6cc(OC7CC(OC8CC(O)C(O)C(C)O8)C(O)C(C)O7)c(C)c(O)c6c5O)CC4[C@H](OC)C(=O)C(C)=O)OC(C)C3O)OC(C)C2O)OC1C (some centres not stated)

Reply:
1. 27.2
2. 98.2
3. 107
4. 54.3
5. 13.5
6. -20.2
7. 8.4
